# Tested on: influenza A H1N1 virus
# Setup Conditions: 22,2 µM peptide, 48 hr post-treatment, A549
Readout: Neuraminidase activity normalized to vehicle

Examples with answers:
CPEP99: peptide of the viral peptide library; sequence page not shown (SWESHKSGGETRL)	1,004
GRPPLPPKQK [CPEP41]	0,912
SLQYLALAALITPKK [CPEP46]	0,9118
RPEPTAPPEE [CPEP116]	0,683
KLVTELAENS [CPEP129]	0,8882

Query :: # input substance: EPLDLPPIIQ [CPEP45] ; wanted: its Neuraminidase activity normalized to vehicle
Result :: 0,8381

Query :: Endpoint output: Neuraminidase activity normalized to vehicle of DLYCYEQLNDSSEEE [CPEP55] . Value?
Result :: 0,9333

Query :: Find the recorded Neuraminidase activity normalized to vehicle belonging to HFEPPTLHELYDLDVTAP [CPEP115] and report it.
Result :: 1,1784

Query :: Fill in: Neuraminidase activity normalized to vehicle of CPEP102: peptide of the viral peptide library; sequence page not shown (PHGPVQLSYYD) is ___
Result :: 0,942

Query :: Which value of Neuraminidase activity normalized to vehicle has been reported for EDLLNEPGQPLDLSC [CPEP104] in the records?
Result :: 0,8954

Query :: Fill in: Neuraminidase activity normalized to vehicle of SAIASGIAVS [CPEP72] is ___
Result :: 1,1913

====

# Test system: influenza A H1N1 virus
# Setup Conditions: 0,823 µM peptide, 48 hr post-treatment, A549
Quick reference for Neuraminidase activity normalized to vehicle among some substances

In the examples that follow, each entry is paired with its recorded Neuraminidase activity normalized to vehicle.
RTYGTWEDLFCDESL [CPEP128]	0,9138
CPEP89: peptide of the viral peptide library; sequence page not shown (YDVLKAACKSVIKT)	0,8515
KLVTELAENS [CPEP129]	1,1002
EDLLNEPGQPLDLSC [CPEP104]	0,8247
NKVGSLQYLALAALI [CPEP60]	0,8991
CPEP64: peptide of the viral peptide library; sequence page not shown (CCFHCQVCFIT)	0,8369

Query substance follows.
Query :: Recorded Neuraminidase activity normalized to vehicle for GGLEPLSEKHFRETEV [CPEP112] , please?
Result :: 1,0673

====

Catalogue of substances with associated Neuraminidase activity normalized to vehicle
# Test system: influenza A H1N1 virus
# Setup Conditions: 0,823 µM peptide, 48 hr post-treatment, A549

Below: 3 substances and their reported Neuraminidase activity normalized to vehicle.
GGKWSKLS [CPEP134]	0,9416
SLQYLALAALITPKK [CPEP46]	0,9309
CMSCCRSSRTRRETQL [CPEP57]	1,0672

Query :: Entry IHTHARFLIT [CPEP139] has what Neuraminidase activity normalized to vehicle?
Result :: 1,1262

Query :: Would you kindly share the measured Neuraminidase activity normalized to vehicle for CPEP86: peptide of the viral peptide library; sequence page not shown (SGFGPLITHG) ?
Result :: 0,7964

Query :: Form field: reported Neuraminidase activity normalized to vehicle of TIESEV [CPEP59]
Result :: 1,1044

Query :: Endpoint output: Neuraminidase activity normalized to vehicle of PPIPPPR [CPEP151] . Value?
Result :: 0,9906

Query :: Given RHFPRIW [CPEP146] , state its recorded Neuraminidase activity normalized to vehicle.
Result :: 0,8163

Query :: # query: Neuraminidase activity normalized to vehicle of entry MAGRSGDSDEELIR [CPEP91]
Result :: 0,8065

Query :: Give the measured Neuraminidase activity normalized to vehicle of CPEP52: peptide of the viral peptide library; sequence page not shown (CFITKALGISYG) .
Result :: 0,9576

Query :: What does the record list as Neuraminidase activity normalized to vehicle for CPEP135: peptide of the viral peptide library; sequence page not shown (KGHRGSHTMNGH) ?
Result :: 0,9322

Query :: # Neuraminidase activity normalized to vehicle lookup, item PKKKRKV [CPEP56]
Result :: 1,0162
